Measurement Notes: Determination of the log P values by HPLC (formic acid method)
Type: physicochemical
Measurement Setup: reversed-phase column (C 18), acidic range (pH 3.4), 55° C.
# maps each entry to its log P
Reported Property: log P

{"columns": ["Compound", "Recorded Measurement"],
 "data": [
  ["CCCn1ncc(I)c1C(=O)Nc1ccn(-c2c(F)cccc2F)n1 [Compound I-1-325]", 3.11],
  ["CCN(C(=O)c1ccccc1Cl)c1ccn(-c2ccccc2Cl)n1 [Compound I-1-22]", 3.41],
  ["O=C(Nc1nn(-c2ccccc2Cl)c2ccccc12)c1cccnc1C(F)(F)F [Compound I-5-9]", 3.11],
  ["O=C(Nc1ccn(-c2c(F)cccc2F)n1)c1cccnc1C(F)F [Compound I-1-248]", 1.99],
  ["CCOCN(C(=O)c1ccccc1C(F)(F)F)c1ccn(-c2c(F)cccc2F)n1 [Compound I-1-262]", 3.40],
  ["O=C(Nc1ccn(-c2ccccc2Br)n1)c1ccccc1C(F)(F)F [Compound I-1-50]", 3.07],
  ["Cc1c([N+](=O)[O-])c(C(=O)Nc2ccn(-c3c(F)cccc3F)n2)nn1C [Compound I-1-234]", 2.03],
  ["O=C(Nc1ccn(-c2ncc(F)cc2F)n1)c1cscc1Br [Compound I-1-524]", 2.30],
  ["Cn1cnc(C(=O)Nc2ccn(-c3c(F)cccc3F)n2)c1[N+](=O)[O-] [Compound I-1-242]", 1.81],
  ["O=C(Nc1ccn(-c2c(F)cccc2F)n1)c1c(F)cccc1I [Compound I-1-277]", 2.74],
  ["O=C(Nc1ccn(-c2ncc(Cl)cc2Cl)n1)c1ccccc1C(F)(F)F [Compound I-1-428]", 3.05],
  ["CCOc1c(F)cccc1-n1ccc(NC(=O)c2ccccc2Cl)n1 [Compound I-1-397]", 2.74],
  ["N#Cc1c(F)cccc1-n1ccc(NC(=O)c2ccsc2I)n1 [Compound I-1-624]", 2.79],
  ["O=C(Nc1ccn(-c2ncc(F)cc2F)n1)c1ccnn1C(F)F [Compound I-1-443]", 2.16],
  ["N#CCN(C(=O)c1ccccc1Cl)c1ccn(-c2ccccc2Cl)n1 [Compound I-1-25]", 3.04],
  ["O=C(Nc1cnn(-c2c(F)cccc2F)n1)c1ccccc1Br [Compound I-2-36]", 2.71],
  ["O=C(Nc1ccn(-c2ncc(Cl)cc2F)n1)c1c(F)cccc1C(F)(F)F [Compound I-1-591]", 2.98],
  ["O=C(Nc1cnn(-c2ccccc2Cl)n1)c1ccccc1I [Compound I-2-3]", 3.03]
]}
